CONDITION_NOTES: pampa; 60.0 min; 50.0 µM
ENDPOINT_LABEL: Papp (×10⁻⁶ cm/s)
Your answer is read as ×10⁻⁶ cm/s, so omit the unit and give the number.

Given "COCCn1cnc2c(c(-c3ccccc3)c(-c3ccccc3)n2CCc2ccccc2)c1=N" , state its recorded Papp.
116

I would be grateful if you could share the reported Papp for "O=C(N[C@@H](CO)[C@H](O)c1ccc([N+](=O)[O-])cc1)C(Cl)Cl" .
3

Papp lookup needed for "CCN(CC)CCNC(=O)c1c(C)[nH]c(/C=C2\C(=O)Nc3ccc(F)cc32)c1C" , thanks.
56

Any idea what its Papp is? The molecule is "CN1CCN(c2ccc(C(=O)Nc3n[nH]c4ccc(Cc5cc(F)cc(F)c5)cc34)c(NC3CCOCC3)c2)CC1"
113

====

CONDITION_NOTES: pampa; 60.0 min; 50.0 µM
Can you tell me Papp for the items I'm about to list?
Numeric answer only, unit ×10⁻⁶ cm/s assumed.

Please look up its Papp: CN(C)C(=O)NC1CCC(CCN2CCN(c3cccc(Cl)c3Cl)CC2)CC1 (stereo not drawn)
100

Endpoint output: Papp of "Cc1ccc(NC(=O)c2ccc(CN3CCN(C)CC3)cc2)cc1Nc1nc(-c2cccnc2)cs1" . Value?
100

Fill blank: measured Papp of the molecule "NNC(=O)c1ccncc1" is ____.
3

Look at this molecule and give its reported Papp. "COCCNC(=O)c1ccc(-c2ncc3cnc(-c4cccc(F)c4)cn23)cc1"
95

Reported Papp for "CC[C@@]1(O)C(=O)OCc2c1cc1n(c2=O)Cc2cc3ccccc3nc2-1" : what is it?
23

Fill in the blank: the reported Papp of "CC(C)N(CCCCOCC(=O)NS(C)(=O)=O)c1cnc(-c2ccccc2)c(-c2ccccc2)n1" is ____.
9

====

CONDITION_NOTES: pampa; 60.0 min; 50.0 µM
ENDPOINT_LABEL: Papp

// query Papp value for entry "COc1cc(/C=C/C(=O)NCCn2c(C(F)(F)F)cc3ccccc32)cc(OC)c1OC"
> 300 ×10⁻⁶ cm/s

Can you look up the measured Papp of "Nc1ccc(/C=C/C(=O)NCc2cc3cc(-c4ccc(C(=O)N5CCC(F)(F)CC5)cc4)cc(-c4ccc(F)cc4)c3o2)cn1" for me?
< 1 ×10⁻⁶ cm/s

Returns the measured Papp for the input compound. Input: "O=C1NC(Nc2ccccc2)=N/C1=C\c1ccc2c(c1)OCO2"
< 1 ×10⁻⁶ cm/s

If you can, please state the reported Papp value of "COCC1=C(C(=O)O)N2C(=O)[C@@H](NC(=O)/C(=N\OC)c3csc(N)n3)[C@H]2SC1" .
< 1 ×10⁻⁶ cm/s
